Reference for the values: patent US4642314A

Exercise: state measured LD50 for each of the compounds provided.
measurement description: acute toxicity (LD50), intraperitoneal route in mice
Type: in vivo
measurement conditions: mouse, in vivo, ip, Table 2

Record excerpt, results attached:
{"compound": "CC(C)=CCCC(C)=CCCC(C)=CCCC(C)=CCCC(C)=CCCC(C)=CCCC(C)=CCCC(C)=CCCC(C)=CCCC(C)=CCCC(=O)OC(C)C [Isopropyl decaprenylacetate]", "endpoint": "LD50", "measured": "> 4000 mg/kg"}
{"compound": "CCCCCCCC/C=C/CCCCCCCC(=O)OC/C=C(\\C)CCC[C@H](C)CCC[C@H](C)CCCC(C)C [Phytyl elaidate]", "endpoint": "LD50", "measured": "> 4000 mg/kg"}
{"compound": "CC(C)=CCCC(C)=CCCC(C)=CCCC(=O)OCC=C(C)CCC=C(C)CCC=C(C)CCC=C(C)CCC=C(C)CCC=C(C)CCC=C(C)CCC=C(C)CCC=C(C)CCC=C(C)C [Decaprenyl farnesylacetate]", "endpoint": "LD50", "measured": "> 5000 mg/kg"}

Working through the 2 compounds below one at a time, give LD50 for each.
1. COC(=O)CCC=C(C)CCC=C(C)CCC=C(C)CCC=C(C)CCC=C(C)CCC=C(C)CCC=C(C)CCC=C(C)CCC=C(C)CCC=C(C)C [Methyl decaprenylacetate]
2. CC(C)=CCCC(C)=CCCC(C)=CCCC(C)=CCCC(C)=CCCC(C)=CCCC(C)=CCCC(C)=CCCC(C)=CCCC(C)=CCO

1. > 4000 mg/kg
2. > 4000 mg/kg

---

measurement description: acute toxicity (LD50), intraperitoneal route in mice
Assay type: in vivo
measurement conditions: mouse, in vivo, ip, Table 1
Exercise: state measured LD50 for each of the compounds provided.

Record excerpt, results attached:
{"compound": "CC(C)=CCCC(C)=CCCC(C)=CCCC(C)=CCCC(C)=CCCC(C)=CCCC(C)=CCCC(C)=CCCC(C)=CCCC(=O)Oc1c(C)c(C)c2c(c1C)CCC(C)(CCCC(C)CCCC(C)CCCC(C)C)O2 (stereo not drawn) [α-Tocopheryl solanesylacetate]", "measured": "> 4000 mg/kg"}
{"compound": "CC(=O)OCC=C(C)CCC=C(C)CCC=C(C)CCC=C(C)CCC=C(C)CCC=C(C)CCC=C(C)CCC=C(C)CCC=C(C)C [Solanesyl acetate]", "measured": "> 4000 mg/kg"}
{"compound": "CC(C)=CCCC(C)=CCCC(C)=CCCC(=O)OCC=C(C)CCC=C(C)CCC=C(C)CCC=C(C)CCC=C(C)CCC=C(C)CCC=C(C)CCC=C(C)CCC=C(C)C [Solanesyl farnesylacetate]", "measured": "> 4000 mg/kg"}

Working through the 4 compounds below one at a time, give LD50 for each.
1. CC(C)=CCCC(C)=CCCC(C)=CCCC(C)=CCCC(C)=CCCC(C)=CCCC(C)=CCCC(C)=CCCC(C)=CCOC(=O)CCC=C(C)CCCC(C)CCCC(C)CCCC(C)C (centres unmarked) [Solanesyl phytylacetate]
2. CCCCCCCC/C=C\CCCCCCCCCCCC(=O)OC/C=C(\C)CCC[C@H](C)CCC[C@H](C)CCCC(C)C [Phytyl erucate]
3. CCCCCCCC/C=C/CCCCCCCC(=O)OCC=C(C)CCC=C(C)CCC=C(C)CCC=C(C)CCC=C(C)CCC=C(C)CCC=C(C)CCC=C(C)CCC=C(C)CCC=C(C)C [Decaprenyl elaidate]
4. C=CC(C)(O)CCC=C(C)CCC=C(C)CCC=C(C)CCC=C(C)CCC=C(C)CCC=C(C)CCC=C(C)CCC=C(C)CCC=C(C)C (centres unmarked)

["> 4000 mg/kg", "> 4000 mg/kg", "> 5000 mg/kg", "> 4000 mg/kg"]

---

Exercise: state measured LD50 for each of the compounds provided.
measurement description: acute toxicity (LD50), intraperitoneal route in mice
Assay type: in vivo
measurement conditions: mouse, in vivo, ip, Table 2

Working through the 5 compounds below one at a time, give LD50 for each.
1. CCCCCCCC/C=C\CCCCCCCC(=O)OCC=C(C)CCC=C(C)CCC=C(C)CCC=C(C)CCC=C(C)CCC=C(C)CCC=C(C)CCC=C(C)CCC=C(C)C [Solanesyl oleate]
2. CCCCCCCC/C=C\CCCCCCCC(=O)OCC=C(C)CCC=C(C)CCC=C(C)CCC=C(C)CCC=C(C)CCC=C(C)CCC=C(C)CCC=C(C)CCC=C(C)CCC=C(C)C [Decaprenyl oleate]
3. CC(C)=CCCC(C)=CCCC(=O)Oc1c(C)c(C)c2c(c1C)CCC(C)(CCCC(C)CCCC(C)CCCC(C)C)O2 (stereo not drawn) [α-Tocopheryl geranylacetate]
4. CC(C)=CCCC(C)=CCCC(C)=CCCC(C)=CCCC(C)=CCCC(C)=CCCC(C)=CCCC(C)=CCCC(C)=CCCC(C)=CCOC(=O)CCC=C(C)CCCC(C)CCCC(C)CCCC(C)C (centres unmarked) [Decaprenyl phytylacetate]
5. CCCCCC[C@@H](O)C/C=C\CCCCCCCC(=O)OC/C=C(\C)CCC[C@H](C)CCC[C@H](C)CCCC(C)C [Phytyl ricinoleate]

> 4000 mg/kg
> 5000 mg/kg
> 4000 mg/kg
> 5000 mg/kg
> 5000 mg/kg

---

measurement description: acute toxicity (LD50), intraperitoneal route in mice
Type: in vivo
measurement conditions: mouse, in vivo, ip, Table 1
Exercise: state measured LD50 for each of the molecules provided.

Working through the 6 molecules below one at a time, give LD50 for each.
1. CCCCCCCC/C=C\CCCCCCCC(=O)OCCC(C)CCCC(C)CCCC(C)CCCC(C)C (stereo not shown) [Dihydrophytyl oleate]
2. CCCCCCCCCCCCCCCC(=O)OC/C=C(\C)CCC[C@H](C)CCC[C@H](C)CCCC(C)C [Phytyl palmitate]
3. C/C(=C\CCC(=O)OC(C)C)CCC[C@H](C)CCC[C@H](C)CCCC(C)C [Isopropyl phytylacetate]
4. CC(C)=CCCC(C)CCCC(=O)Oc1c(C)c(C)c2c(c1C)CCC(C)(CCCC(C)CCCC(C)CCCC(C)C)O2 (stereo not drawn) [α-Tocopheryl citronellylacetate]
5. CC(C)=CCCC(C)=CCCC(C)=CCCC(C)=CCCC(C)=CCCC(C)=CCCC(C)=CCCC(C)=CCCC(C)=CCCC(C)=CCCC(=O)Oc1c(C)c(C)c2c(c1C)CCC(C)(CCCC(C)CCCC(C)CCCC(C)C)O2 (stereo not drawn) [α-Tocopheryl decaprenylacetate]
6. COC(=O)CC/C=C(\C)CCC[C@H](C)CCC[C@H](C)CCCC(C)C [Methyl phytlacetate, Methyl phytylacetate]

1: > 4000 mg/kg; 2: > 5000 mg/kg; 3: > 5000 mg/kg; 4: > 4000 mg/kg; 5: > 4000 mg/kg; 6: > 5000 mg/kg

---

measurement description: acute toxicity (LD50), intraperitoneal route in mice
Format: in vivo
measurement conditions: mouse, in vivo, ip, Table 1
endpoint: LD50

{"compound": "CC(C)=CCCC(C)=CCCC(C)=CCCC(C)=CCCC(C)=CCCC(C)=CCCC(C)=CCCC(C)=CCCC(C)=CCCC(C)=CCCC(=O)OCC=C(C)CCC=C(C)CCC=C(C)CCC=C(C)CCC=C(C)CCC=C(C)CCC=C(C)CCC=C(C)CCC=C(C)C [Solanesyl decaprenylacetate]", "measured": "> 4000 mg/kg"}
{"compound": "C/C(=C\\CCC(=O)OC/C=C(\\C)CCC[C@H](C)CCC[C@H](C)CCCC(C)C)CCC[C@H](C)CCC[C@H](C)CCCC(C)C [Phytyl phytylacetate]", "measured": "> 5000 mg/kg"}
{"compound": "CCCCCCCCCCCCCCCCCC(=O)OCCC(C)CCCC(C)CCCC(C)CCCC(C)C (stereo not shown) [Dihydrophytyl stearate]", "measured": "> 4000 mg/kg"}

Working through the 5 compounds below one at a time, give LD50 for each.
1. CC(C)CCCC(C)CCCC(C)CCCC(C)CCCC(C)CCCC(C)CCCC(C)CCCC(C)CCCC(C)CCCC(C)CCO (stereo not shown)
2. CC(C)=CCC/C(C)=C/CCC(=O)OC/C=C(\C)CCC[C@H](C)CCC[C@H](C)CCCC(C)C [Phytyl geranylacetate]
3. CC(C)=CCCC(C)CCCC(=O)OC/C=C(\C)CCC[C@H](C)CCC[C@H](C)CCCC(C)C (stereo partly shown) [Phytyl citronellylacetate]
4. CCCCCCCCCCCC(=O)OC/C=C(\C)CCC[C@H](C)CCC[C@H](C)CCCC(C)C [Phytyl laurate]
5. CC(C)=CCCC(C)=CCCC(C)=CCCC(=O)OC/C=C(\C)CCC[C@H](C)CCC[C@H](C)CCCC(C)C [Phytyl farnesylacetate]

1. > 5000 mg/kg
2. > 5000 mg/kg
3. > 5000 mg/kg
4. > 5000 mg/kg
5. > 5000 mg/kg

Working through the 2 compounds below one at a time, give LD50 for each.
1. CC(C)=CCC/C(C)=C/CC/C(C)=C/CC/C(C)=C/CC/C(C)=C/CC/C(C)=C/CC/C(C)=C/CC/C(C)=C/CC/C(C)=C/CO
2. CC(C)=CCCC(C)=CCCC(C)=CCCC(C)=CCCC(C)=CCCC(C)=CCCC(C)=CCCC(C)=CCCC(C)=CCCC(=O)OCC=C(C)CCC=C(C)CCC=C(C)CCC=C(C)CCC=C(C)CCC=C(C)CCC=C(C)CCC=C(C)CCC=C(C)C [Solanesyl solanesylacetate]

["> 4000 mg/kg", "> 4000 mg/kg"]
